Tested on: OVCAR-4
Experiment: NCI tumour cell line growth inhibition, 48 h
The source made the active and inactive calls. Rule as the data show it: active = GI50 up to about 1.1 µM and inactive = higher.
Bench note: report the call from active, inactive

Answered cases to consult:
> print(dat)
                                   compound   target  class.assignment
1  O=C1CN2C(Cl)(Cl)C2(c2ccccc2)c2cc(Cl)ccc2N1CC(F)(F)F (stereo unspecified)  OVCAR-4          inactive
2  CC1OC(OC2CCCc3c(O)c4c(c(O)c32)C(=O)c2ccccc2C4=O)CC(N)C1O (stereo unspecified)  OVCAR-4          inactive

## Task State the result this test recorded for COC1=CC(=O)C2C(C1=O)[C@@H]1c3ccccc3OC(C)(C)[C@H]21 (stereo partly specified) .
## Result inactive

## Task State the result this test recorded for CCOP(=O)(Cc1nc(C#N)c(N)o1)OCC .
## Result inactive

## Task State the result this test recorded for Cc1cc2c(=Cc3ccc(N(C)C)cc3)c3ccccc3n2[n+]1C .
## Result active

## Task State the result this test recorded for COc1cc(C2c3cc4c(cc3OC(N3CCOCC3)C2C)OCO4)cc(OC)c1O (stereo unspecified) .
## Result inactive

## Task State the result this test recorded for Cc1cc(C)c2c(c1)CC1(Cc3c(C)cc(C)cc3C1=O)C2=O (stereo unspecified) .
## Result inactive

## Task State the result this test recorded for CN1CCN(c2ccc3[nH]c(-c4ccc5[nH]c(CCCc6ccc(N(CCCl)CCCl)cc6)nc5c4)nc3c2)CC1 .
## Result inactive

###

Tested on: K562
Test: NCI tumour cell line growth inhibition, 48 h
Calls of active or inactive are those of the source. No stated cut-off is given here; in the data, active = GI50 up to about 1.1 µM and inactive = higher.
Bench note: report the call from TRUE for active, FALSE for inactive

Molecule	Class assignment
COc1ccc(/C(Cl)=C(\C=O)c2ccc(Br)cc2)cc1OC	FALSE
CCCOC(=O)C1CCC(=O)N1C(=O)C(C)Cl (stereo unspecified)	FALSE
CC(=O)Nc1ccc(C(=O)NN2C(=O)C(Cl)C2c2ccc([N+](=O)[O-])cc2)cc1 (stereo unspecified)	FALSE
N=c1oc2c(O)c(O)ccc2cc1C(N)=O	FALSE
O=C1CN2C(Cl)(Cl)C2(c2ccccc2)c2cc(Cl)ccc2N1CC(F)(F)F (stereo unspecified)	FALSE

## Task State the result this test recorded for CC(=O)OC1C[C@H]2C(OC(=O)c3ccccc3)C3C4(OC(C)=O)COC4C[C@H](OC(C)=O)[C@@]3(C)C(OC(C)=O)[C@H](OC(C)=O)C(=C1C)C2(C)C (stereo partly specified) .
## Result FALSE

## Task State the result this test recorded for NC(CCSC(F)F)C(=O)O (stereo unspecified) .
## Result FALSE

## Task State the result this test recorded for CC(C)(C)OC(=O)N1N=NC2C3CC(=O)C(O3)C21 (stereo unspecified) .
## Result FALSE

## Task State the result this test recorded for C[N+](C)(C)CC1CCCC1=O (stereo unspecified) .
## Result TRUE

## Task State the result this test recorded for O=C1C(CO)=C[C@@H](O)[C@H]2O[C@@H]12 .
## Result FALSE

## Task State the result this test recorded for CC[C@@]1(O)C(=O)OCc2c1cc1n(c2=O)Cc2c-1nc1ccccc1c2/C=N\NC(=O)CN .
## Result TRUE

## Task State the result this test recorded for CN(C)c1ccc(Cc2cc3c(O)ccc(O)c3cc(Cc3ccc(N(C)C)cc3)c2=O)cc1 .
## Result FALSE
